# target_of_assay: human TLR9 (Homo sapiens)
# Sequence (Q9NR96 26-1032): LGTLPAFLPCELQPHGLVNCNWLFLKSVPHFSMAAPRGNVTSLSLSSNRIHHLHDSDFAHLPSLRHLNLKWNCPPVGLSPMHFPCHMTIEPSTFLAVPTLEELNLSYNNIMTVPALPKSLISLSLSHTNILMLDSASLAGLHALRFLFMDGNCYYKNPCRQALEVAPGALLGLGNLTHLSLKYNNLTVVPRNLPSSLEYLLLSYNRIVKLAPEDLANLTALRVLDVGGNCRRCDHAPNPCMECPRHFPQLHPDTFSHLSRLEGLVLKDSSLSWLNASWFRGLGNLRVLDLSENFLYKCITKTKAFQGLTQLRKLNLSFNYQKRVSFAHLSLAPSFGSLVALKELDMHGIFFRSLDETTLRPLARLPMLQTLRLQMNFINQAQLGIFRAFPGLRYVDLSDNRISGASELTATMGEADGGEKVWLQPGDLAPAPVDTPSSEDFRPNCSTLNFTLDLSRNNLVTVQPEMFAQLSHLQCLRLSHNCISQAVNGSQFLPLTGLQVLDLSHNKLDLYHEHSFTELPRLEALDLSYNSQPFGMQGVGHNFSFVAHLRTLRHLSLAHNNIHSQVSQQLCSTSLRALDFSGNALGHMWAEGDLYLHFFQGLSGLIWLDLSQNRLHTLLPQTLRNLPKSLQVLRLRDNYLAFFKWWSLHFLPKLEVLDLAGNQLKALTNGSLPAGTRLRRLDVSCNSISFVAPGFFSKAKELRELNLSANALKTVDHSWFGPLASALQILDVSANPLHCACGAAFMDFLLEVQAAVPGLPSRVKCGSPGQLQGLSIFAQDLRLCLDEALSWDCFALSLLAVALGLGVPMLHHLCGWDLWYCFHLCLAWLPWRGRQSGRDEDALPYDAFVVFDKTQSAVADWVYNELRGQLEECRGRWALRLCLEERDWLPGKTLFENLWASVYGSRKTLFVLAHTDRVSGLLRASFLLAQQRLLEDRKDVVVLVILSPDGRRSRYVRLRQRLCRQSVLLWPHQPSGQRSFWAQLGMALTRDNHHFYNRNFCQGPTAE
# assay_notes: HEK293-Blue-hTLR-9 cells assay
# test_settings: HEK293-Blue-hTLR9 cells, ODN2006 stimulation, 20 hrs, SEAP reporter; read-out: HEK/hTLR9 IC50
Kindly state IC50 for each of the entries shown.
Provide the reading as a plain figure in nM.

q: Entry C[C@@H]1CN(c2ccc(C#N)c3ncccc23)C[C@@H]2c3ccc(NCCN4CC[C@H](O)C4)cc3CN12 has what IC50?
a: 73.5

q: What IC50 value was documented for this compound, Cc1ccc(N2C[C@@H](C)N3Cc4cc(N[C@H]5CNC[C@H]5F)ccc4[C@H]3C2)c2cccnc12 ?
a: 203

q: Entry C[C@@H]1CN(c2ccc(C#N)c3ncccc23)C[C@@H]2c3cc(F)c(N4CC5CNCC(C4)O5)cc3CN12 : reported IC50 = ?
a: 151

q: Could you tell me which IC50 is on file for C[C@@H]1CN(c2ccc(C#N)c3ncccc23)CC2c3ccc(N4C[C@H](N)[C@@H](O)C4)cc3CN21 (relative stereo) ?
a: 56.1

---

# target_of_assay: human TLR7 (Homo sapiens)
# Sequence (Q9NYK1 27-1049): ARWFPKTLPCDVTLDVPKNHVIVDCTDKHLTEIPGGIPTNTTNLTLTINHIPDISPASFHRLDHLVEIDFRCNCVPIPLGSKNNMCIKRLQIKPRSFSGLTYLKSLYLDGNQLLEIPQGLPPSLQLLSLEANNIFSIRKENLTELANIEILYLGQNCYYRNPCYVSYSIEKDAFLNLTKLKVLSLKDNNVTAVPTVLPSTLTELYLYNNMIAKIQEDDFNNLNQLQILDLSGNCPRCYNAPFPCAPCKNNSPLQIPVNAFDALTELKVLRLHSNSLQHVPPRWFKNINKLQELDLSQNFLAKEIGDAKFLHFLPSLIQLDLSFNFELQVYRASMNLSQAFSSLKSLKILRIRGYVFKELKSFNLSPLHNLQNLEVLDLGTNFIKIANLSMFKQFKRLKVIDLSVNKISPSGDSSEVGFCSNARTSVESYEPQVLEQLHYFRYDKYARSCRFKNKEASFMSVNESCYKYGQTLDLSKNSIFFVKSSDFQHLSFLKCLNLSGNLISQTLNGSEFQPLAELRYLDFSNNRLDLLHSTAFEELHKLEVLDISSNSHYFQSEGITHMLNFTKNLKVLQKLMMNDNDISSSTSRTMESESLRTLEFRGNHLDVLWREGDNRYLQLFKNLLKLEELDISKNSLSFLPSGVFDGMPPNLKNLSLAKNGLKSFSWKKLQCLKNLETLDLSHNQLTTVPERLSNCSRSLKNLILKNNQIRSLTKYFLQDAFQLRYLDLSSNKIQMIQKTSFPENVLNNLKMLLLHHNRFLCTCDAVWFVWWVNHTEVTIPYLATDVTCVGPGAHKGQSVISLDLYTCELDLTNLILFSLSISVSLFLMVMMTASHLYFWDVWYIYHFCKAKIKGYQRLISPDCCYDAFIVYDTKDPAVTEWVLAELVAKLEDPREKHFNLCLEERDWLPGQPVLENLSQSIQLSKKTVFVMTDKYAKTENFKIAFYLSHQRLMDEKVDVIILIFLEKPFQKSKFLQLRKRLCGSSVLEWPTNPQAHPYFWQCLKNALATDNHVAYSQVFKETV
# assay_notes: HEK293-Blue-hTLR-7 cells assay
# test_settings: HEK293-Blue-hTLR7 cells, R848 stimulation, 20 hrs, SEAP reporter; read-out: HEK/hTLR7 IC50
Would you mind telling me the reported pIC50 of each entry?
Would you please state pIC50, meaning minus log10 of the concentration in mol/L, as a bare number?

q: So what does the record say about pIC50 for C[C@@H]1CN(c2ccc(C#N)c3ncccc23)C[C@@H]2c3cccc(N[C@H]4CNC[C@H]4F)c3CN12 ?
a: 8.13

q: Item under review: C[C@@H]1CN(c2ccc(C#N)n3nccc23)C[C@@H]2c3ccc(N4CCNCC4)cc3CN12 . Reported pIC50?
a: 8.31

q: Report pIC50 for C[C@@H]1CN(c2ccc(C#N)c3ncccc23)C[C@@H]2c3ccc(N[C@@H]4CNCCOC4)cc3CN12 [Example 56A] please.
a: 7.95

q: Name the recorded pIC50 for C[C@@H]1CN(c2ccc(C#N)c3ncccc23)C[C@@H]2c3ccc(N4C[C@H](N)[C@@](C)(O)C4)cc3CN12 [Example 45B] .
a: 8.48

q: GET /values?readout=pIC50&item= C[C@@H]1CN(c2ccc(C#N)c3ncccc23)C[C@@H]2c3ccc(N4CCOC[C@H](N)C4)cc3CN12 [Example 54A]
a: 8.35

---

# target_of_assay: human TLR8 (Homo sapiens)
# Sequence (Q9NR97 27-1041): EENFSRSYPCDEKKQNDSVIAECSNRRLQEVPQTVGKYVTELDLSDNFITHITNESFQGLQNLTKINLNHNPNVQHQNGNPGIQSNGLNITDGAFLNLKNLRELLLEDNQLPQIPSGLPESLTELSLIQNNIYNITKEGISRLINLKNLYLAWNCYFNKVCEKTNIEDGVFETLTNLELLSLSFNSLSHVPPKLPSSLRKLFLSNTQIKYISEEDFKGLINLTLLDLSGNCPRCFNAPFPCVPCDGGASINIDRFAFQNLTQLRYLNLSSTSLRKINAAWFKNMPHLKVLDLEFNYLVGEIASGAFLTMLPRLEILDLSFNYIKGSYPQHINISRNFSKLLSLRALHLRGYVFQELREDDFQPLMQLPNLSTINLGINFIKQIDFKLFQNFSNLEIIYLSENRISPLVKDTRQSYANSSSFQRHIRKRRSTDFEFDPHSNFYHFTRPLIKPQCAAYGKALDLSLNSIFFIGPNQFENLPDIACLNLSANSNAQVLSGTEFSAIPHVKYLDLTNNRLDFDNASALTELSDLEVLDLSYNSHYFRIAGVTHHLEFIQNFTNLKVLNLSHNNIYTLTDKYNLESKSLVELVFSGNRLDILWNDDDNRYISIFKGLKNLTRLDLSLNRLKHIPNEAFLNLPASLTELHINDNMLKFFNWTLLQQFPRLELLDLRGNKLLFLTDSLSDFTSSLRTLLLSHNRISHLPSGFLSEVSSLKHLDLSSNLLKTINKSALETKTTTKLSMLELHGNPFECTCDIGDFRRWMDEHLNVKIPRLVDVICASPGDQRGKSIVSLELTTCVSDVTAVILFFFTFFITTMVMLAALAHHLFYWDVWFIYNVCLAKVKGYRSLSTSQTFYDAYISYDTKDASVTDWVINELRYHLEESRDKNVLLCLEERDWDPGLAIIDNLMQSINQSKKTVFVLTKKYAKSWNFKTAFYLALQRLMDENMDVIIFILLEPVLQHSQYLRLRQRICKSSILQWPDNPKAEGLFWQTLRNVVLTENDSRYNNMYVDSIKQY
# assay_notes: HEK293-Blue-hTLR-8 cells assay
# test_settings: HEK293-Blue-hTLR8 cells, R848 stimulation, 20 hrs, SEAP reporter; read-out: HEK/hTLR8 IC50
experimental_endpoint: IC50

q: Data request, read-out IC50, for CO[C@@H]1CNC[C@@H]1Nc1ccc2c(c1)CN1[C@H](C)CN(c3ccc(C#N)c4ncccc34)C[C@H]21 [Example 60]
a: < 3.2 nM

q: Fill blank: measured IC50 of the compound C[C@@H]1CN(c2ccc(C#N)n3nccc23)C[C@@H]2c3ccc(N4C[C@H](N)[C@@H](O)C4)cc3CN12 [Example 111] is ____.
a: 2 nM

q: Form field: reported IC50 of C[C@@H]1CN(c2ccc(C#N)c3ncccc23)C[C@@H]2c3ccc(C4CCNCC4)cc3CN12 [Example 9]
a: < 3.2 nM

q: # input compound: C[C@H]1CN(c2ccc(C#N)c3ncccc23)C[C@H]2c3ccc(N4CCNCC4)cc3CN12 [Example 2] ; wanted: its IC50
a: < 3.2 nM

q: Name the recorded IC50 for C[C@@H]1CN(c2ccc(C#N)c3ncccc23)C[C@@H]2c3ccc(N4C[C@@H]5CNCCN5C4=O)cc3CN12 [Example 71] .
a: < 3.2 nM

q: # input compound: C[C@@H]1CN(c2ccc(C#N)c3ncccc23)C[C@@H]2c3ccc(N4CC(C)(N)C4)cc3CN12 [Example 39] ; wanted: its IC50
a: < 0.3 nM

q: May I ask what IC50 has been recorded for C[C@@H]1CN(c2ccc(C#N)c3ncccc23)C[C@@H]2c3ccc(N[C@H]4CNCCOC4)cc3CN12 [Example 56B] ?
a: < 3.2 nM

q: Reported IC50, compound C[C@@H]1CN(c2ccc(C#N)c3ncccc23)C[C@@H]2c3ccc(N4CCNC[C@@H](O)C4)cc3CN12 [Example 53B] : ____
a: < 3.2 nM

q: Give the measured IC50 of C[C@@H]1CN(c2ccc(C#N)c3ncccc23)C[C@@H]2c3ccc(N4CC(N)C5(COC5)C4)cc3CN12 (stereo partly shown) [Example 18] .
a: < 3.2 nM

q: # get_value(readout='IC50', item= C[C@@H]1CN(c2ccc(C#N)c3ncccc23)C[C@@H]2c3ccc(NCCN(C)C)cc3CN12 [Example 26] )
a: < 3.2 nM

q: Query: IC50; subject: C[C@@H]1CN(c2ccc(C#N)n3nccc23)C[C@@H]2c3ccc(N4CC[C@@H](N)C4)cc3CN12 [Example 96]
a: 4 nM

q: Please give the measured IC50 for this compound: C[C@@H]1CN(c2ccc(C#N)c3ncccc23)C[C@@H]2c3ccc(OCCN(C)C)cc3CN12 [Example 25]
a: < 3.2 nM

q: Name the recorded IC50 for C[C@@H]1CN(c2ccc(C#N)c3ncccc23)C[C@@H]2c3ccc(C4CNC4)cc3CN12 [Example 29] .
a: < 3.2 nM

q: For CO[C@@H]1CN(c2ccc3c(c2)CN2[C@H](C)CN(c4ccc(C#N)n5nccc45)C[C@H]32)CC[C@@H]1N [Example 105] , what is its reported IC50?
a: 4.1 nM

q: So what's the measured IC50 for this one? C[C@@H]1CN(c2ccc(C#N)c3ncccc23)C[C@@H]2c3ccc(N4CCNCC(O)C4)cc3CN12 (stereo partly shown) [Example 15]
a: < 3.2 nM

q: Find the recorded IC50 belonging to C[C@@H]1CN(c2ccc(C#N)c3ncccc23)C[C@@H]2c3ccc(N4CCOC[C@H](N)C4)cc3CN12 [Example 54A] and report it.
a: < 3.2 nM

q: // returns reported IC50 for input C[C@@H]1CN(c2ccc(C#N)c3ncccc23)C[C@@H]2c3ccc(N4CC[C@@H](N)C4)cc3CN12 [Example 20]
a: < 3.2 nM

q: What does the data say about its IC50? Entry: C[C@@H]1CN(c2ccc(C#N)c3ncccc23)C[C@@H]2c3ccc(N4C[C@@H](N)[C@](C)(O)C4)cc3CN12 [Example 45]
a: < 3.2 nM

q: Give the measured IC50 of C[C@@H]1CN(c2ccc(C#N)c3ncccc23)CC2c3ccc(N4C[C@H](N)[C@@H](O)C4)cc3CN21 (relative stereo) [Example 21] .
a: < 3.2 nM

q: Param item = C[C@@H]1CN(c2ccc(C#N)c3ncccc23)C[C@@H]2c3ccc(N4CC5(CN(C)C5)C4)cc3CN12 [Example 38] ; retrieve measured IC50.
a: < 0.3 nM

q: For the compound shown here, C[C@@H]1CN(c2ccc3c(c2)CN2[C@H](C)CN(c4ccc(C#N)n5nccc45)C[C@H]32)CCN1 [Example 97] , give the reported IC50.
a: 1 nM

q: What IC50 value was documented for this compound, C[C@@H]1CN(c2ccc(C#N)c3ncccc23)C[C@@H]2c3ccc(C(=O)N4CCC(C)(N)CC4)cc3CN12 [Example 88] ?
a: 0.7 nM

q: IC50 for C[C@@H]1CN(c2ccc(C#N)c3ncccc23)C[C@@H]2c3ccc(N4C[C@H]5NCCO[C@@H]5C4)cc3CN12 [Example 44] ?
a: 0.4 nM

q: For the compound CO[C@H]1CCN(c2ccc3c(c2)CN2[C@H](C)CN(c4ccc(C#N)n5nccc45)C[C@H]32)C[C@H]1N [Example 106] , what IC50 is on record?
a: 2.9 nM

q: Reported IC50 for CO[C@H]1CNC[C@H]1Nc1ccc2c(c1)CN1[C@H](C)CN(c3ccc(C#N)c4ncccc34)C[C@H]21 [Example 61] : what is it?
a: < 3.2 nM

q: Value lookup for IC50; key = C[C@@H]1CN(c2ccc(C#N)c3ncccc23)C[C@@H]2c3cc(F)c(N4CC5(CNC5)C4)cc3CN12 [Example 84]
a: 1.3 nM

q: Quick one: IC50 of CO[C@@H]1CNC[C@H]1Nc1cc2c(cc1C)[C@H]1CN(c3ccc(C#N)c4ncccc34)C[C@@H](C)N1C2 [Example 63] ?
a: 6.2 nM

q: Entry CN[C@@H]1CN(c2ccc3c(c2)CN2[C@H](C)CN(c4ccc(C#N)c5ncccc45)C[C@H]32)C[C@H]1O [Example 43] : reported IC50 = ?
a: < 3.2 nM

---

# target_of_assay: human TLR9 (Homo sapiens)
# assay_notes: HEK293-Blue-hTLR-9 cells assay
# test_settings: HEK293-Blue-hTLR9 cells, ODN2006 stimulation, 20 hrs, SEAP reporter; read-out: HEK/hTLR9 IC50
experimental_endpoint: IC50 (nM)
Express the result in nM but write the number alone.

q: Quick check: IC50 of C[C@@H]1CN(c2ccc(C#N)c3ncccc23)C[C@@H]2c3ccc(NC[C@H]4CNCCO4)cc3CN12 ?
a: 73.5

q: Query (molecule): C[C@@H]1CN(c2ccc(C#N)n3nccc23)C[C@@H]2c3ccc(N4C[C@H](N)[C@@H](O)C4)cc3CN12 ; field requested: IC50
a: 38

q: // query IC50 value for entry C[C@@H]1CN(c2ccc(C#N)c3ncccc23)C[C@@H]2c3ccc(C4CCNCC4)cc3CN12
a: 130

q: Entry C[C@@H]1CN(c2ccc(C#N)c3ncccc23)C[C@@H]2c3ccc(N4C[C@@H](N)[C@H](F)C4)cc3CN12 : reported IC50 = ?
a: 193
